Numbers sourced from PubChem BioAssay (NCI).

Test system: CCRF-CEM leukemia
Assay: NCI-60 one-dose screen, 48 h (100 = growth as untreated, 0 = no growth, -100 = all killed)
Conditions: 10 µM unless noted
About 83,000 compounds went through this panel and 20% of them were active in at least one assay; those are over-represented in the sample as a whole.
// NB: equality with 50% counts as criterion not met; only growth strictly below is criterion met

Query block: Field: below-cutoff. Rule: recorded growth strictly less than 50%. Subject: N#C/C(=C\c1ccc([N+](=O)[O-])s1)c1nc2cc(Cl)ccc2s1
Result block: criterion met

Query block: Quick check: growth of CCC(=O)Oc1ccc(/C(=C(\C)c2ccccc2)c2ccc(OCCN3CCCCC3)cc2)cc1 under 50%?
Result block: criterion not met

Query block: Hi there! Is growth for COc1cc(/C=C\c2cc(OC)c(OC)c(OC)c2)cc(NC(=O)/C=C/c2cc(OC)c(OC)c(OC)c2)c1OC below 50%, do you know?
Result block: criterion met

Query block: Check if growth falls below 50% for O=S(=O)(NCCCNc1nccc(-c2c(-c3cccc(F)c3)nc3sccn23)n1)c1cccc(F)c1 .
Result block: criterion met

Query block: For NCCCCCCNc1cc(-c2cccc(OC(F)(F)F)c2)nc2ccc(N3CCCC3)cc12 , is the recorded growth below the cut-off of 50%?
Result block: criterion met

Query block: A record lists Brc1ccc2[nH]cc(-c3cncn3CCc3ccccc3)c2c1 . Is its growth below 50%?
Result block: criterion not met

Query block: Is growth of COc1cc(C=O)ccc1OC1OC(COC(C)=O)C(OC(C)=O)C(OC(C)=O)C1OC(C)=O (stereo unspecified) strictly below 50%?
Result block: criterion not met

Query block: Does the reported growth of COc1ccc(CC(C)=C(c2ccc(OCCN3CCCCCC3)cc2)c2ccc(OCCN3CCCCCC3)cc2)cc1 stay below 50%?
Result block: criterion met

Query block: Please check: growth for C=C1C(=O)O[C@H]2[C@H]1CC/C(CNS(=O)(=O)c1cccc3ccccc13)=C\CC[C@@]1(C)O[C@@H]21 , strictly under 50% or not?
Result block: criterion met

Query block: Would you kindly verify if growth of Cn1c2ccccc2c2c3c(c4c5ccccc5n(C)c4c21)C(=O)OC3 is strictly less than 50%?
Result block: criterion not met

Query block: Hello, is growth of the following compound strictly smaller than 50%? CCCCCCNC(=O)Oc1ccc(/C(=C(\C)c2ccccc2)c2ccc(OCCN3CCCCC3)cc2)cc1
Result block: criterion not met

###

System: SW-620 colon
Test: NCI-60 one-dose screen, 48 h (100 = growth as untreated, 0 = no growth, -100 = all killed)
Conditions: 10 µM unless noted
Experimental: Growth inhibition of the SW-620 human tumor cell line is measured as a screen for anti-cancer activity. Cells are grown in 96 well plates and exposed to the test compound for 48 hours. Compounds are tested at a single concentration, which is 10^-5 M for most compounds. The reported endpoint is percent growth (GI% or GIPRCNT), where numbers from 0 - 100% represent growth inhibition, and numbers from -100% - 0 represent cell death. For example, a value of 40 represents 60% growth inhibition. […]
This is part of a sample that, as a whole, favours compounds with a hit. Of some 83,000 tested, about 20% had one in any assay.
readout label: growth (%)
Reply with just the number (in %).

Query block: Reported growth, molecule CC(C)=CCC[C@](C)(O)[C@H]1CC[C@]2(C)[C@@H]1CC[C@@H]1[C@@]3(C)C/C(=C/c4ccccc4)C(=O)C(C)(C)[C@@H]3CC[C@]12C : ____
Result block: 80.4

Query block: Could you share which growth value was measured for COc1ccc(C/C(C)=C(/c2ccc(OCCCN(C)C)cc2)c2ccc(OC(C)=O)cc2)cc1 ?
Result block: 87.8

Query block: Can you share its growth? I mean this molecule: CCOC(=O)c1ccc2c(c1)ncn2-c1ccc(NC(=O)Nc2cccc(C)c2)cc1
Result block: 81.6

Query block: I'd like to know its growth. The molecule in question is Cn1nc(CC#N)c2c(=N)n(N)cnc21
Result block: 104

Query block: Entry under review: CN1CCN(C(=O)[C@]23CCC(C)(C)C[C@H]2C2=CC[C@@H]4[C@@]5(C)C/C(=C/c6ccncc6)C(=O)C(C)(C)[C@@H]5CC[C@@]4(C)[C@]2(C)CC3)CC1 . Reported growth?
Result block: 33.8

Query block: Which value of growth has been reported for O=C(/C=C/c1c(-c2ccc(Cl)cc2)nn(-c2ccccc2)c1C(F)(F)F)c1ccc(Cl)cc1 in the records?
Result block: 104

Query block: Give the measured growth of COc1cc(CC(=O)c2ccc(O)c(OC)c2)ccc1O .
Result block: 102

Query block: // lookup growth for O=S(=O)(NCCCNc1nccc(-c2c(-c3cccc(F)c3)nc3sccn23)n1)c1cccc(F)c1
Result block: 76.7

Query block: Fill in: growth of c1ccc(-c2c(-c3ccccc3)[n+](Cc3ccc4ccccc4c3)c(-c3cccc4ccccc34)n2Cc2ccc3ccccc3c2)cc1 is ___
Result block: -66.1
